What melting point was measured for each of the following?
Numbers only, in °C.

Need melting point for each of these compounds.
1. CC(OC(=O)c1sc(C(C)(C)c2c(Cl)cc(-n3ncc(=O)[nH]c3=O)cc2Cl)nc1-c1ccccc1)OC(=O)C(c1ccccc1)C1CCCC1 (stereo not drawn)
2. CN1CCN(CCOC(=O)c2sc(C(C)(C)c3c(Cl)cc(-n4ncc(=O)[nH]c4=O)cc3Cl)nc2-c2ccccc2)S1(=O)=O
3. CC(=O)c1sc(C(C)(C)c2c(Cl)cc(-n3ncc(=O)[nH]c3=O)cc2Cl)nc1-c1ccccc1

1: 110; 2: 112; 3: 212

###

Label Criterion met for high-side melting point (at or above 200 °C) and Criterion not met for low-side melting point (below it).

compound=CC(C)(c1nc(-c2ccccc2)c(C(=O)OCOC(=O)C2CCCCC2)s1)c1c(Cl)cc(-n2ncc(=O)[nH]c2=O)cc1Cl class_name="Criterion not met"

Assess whether reported melting point for CC(C)(c1nc(-c2ccccc2)c(C(=O)OC2CCCC(O)C2)s1)c1c(Cl)cc(-n2ncc(=O)[nH]c2=O)cc1Cl (stereo not drawn) sits at 200 °C or higher.
Criterion not met

Likewise for CCOC(=O)CCc1sc(C(C)(C)c2c(Cl)cc(-n3ncc(=O)[nH]c3=O)cc2Cl)nc1-c1ccccc1 ?
Criterion not met

Likewise for CCOC(=O)C(Cl)(Cl)c1ccccc1-c1nc(C(C)(C)c2c(Cl)cc(-n3ncc(=O)[nH]c3=O)cc2Cl)no1 ?
Criterion not met

Likewise for CC(C)(c1nc(-c2ccccc2)c(C(=O)OC2CCOC2=O)s1)c1c(Cl)cc(-n2ncc(=O)[nH]c2=O)cc1Cl (stereo not drawn) ?
Criterion met

Values from patent US6911444B2
